Provenance of the data: PubChem BioAssay (NCATS)

Test: Cellular Toxicity (caspase-3) H-4-II-E (AID 663);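 note: cells exposed to compound for 16 hr before readout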
Conditions: H-4-II-E rat hepatoma, scaled: DMSO 0%, 100 µM tamoxifen 100%; at 92.2 µM (top of the series)
Records with an inconclusive call do not appear.
I'd be grateful if you could share measured caspase-3 activation for these entries.
Give bare numbers, in %.

Field: example entries. Status: answers known.
Nc1nc(-c2ccccc2)cs1 = 0.301
CCOC(=O)C(C)C(C)=O (configuration not stated) = 0.941
CCC(C)=O = 0.152
NC(=O)c1cccc([N+](=O)[O-])c1 = -1.74

Record caspase-3 activation per entry; entries follow.
1. Cc1cc(C(=O)O)ccc1[N+](=O)[O-]
2. Clc1ccc(Cl)c(Cl)c1Cl
3. CC(C)c1ccccc1
4. CNC(=O)N(c1ccccc1)c1ccccc1

[-0.927, -0.982, 0.504, 1.51]
